# Tested on: rice
# protocolNotes: Test C flooded paddy test
# Format: in vivo, Oryza sativa
# settings: 125 g ai/ha, scale 0 to 100 (0 no effect, 100 complete control)
readoutName: Rice plant response rating

entrySmiles	assayedTarget	observedValue
CCN(C(C)=O)C(=O)c1ccc(F)c(NC(=O)c2cc(C(C)(C)C)nn2CC)c1	rice	45
CCc1nc(C(C)(C)C)sc1C(=O)Nc1cc(C(=O)N(C)C)ccc1F	rice	70
CCc1nn(C(C)C)nc1C(=O)Nc1cccc(C(=O)N2CCCCC2)c1	rice	50
CCn1nc(C(C)(C)C)cc1C(=O)Nc1cncc(C(=O)N2CC=CC2)n1	rice	0

Each recorded value in this set is attributed to patent US20060069132A1.
